Recorded viability, T/C, one value per entry.
# System: CN0375-F725-PDC KRAS spheroid viability
# Assay Explanation: Anticancer human tumor CN0375-F725-PDC patient-derived colon carcinoma cell line growth inhibition [KRAS2]
# Test Conditions: second compound 0.316 µM; first compound 0.000316 µM; stronger effect = lower value; spheroids with HUVEC and MSC
Unit % implied. Number only.

Compound | viability, T/C [%]
CN(C)C/C=C/C(=O)Nc1cc2c(Nc3ccc(F)c(Cl)c3)ncnc2cc1O[C@H]1CCOC1 + COc1cc2nc(C)nc(NC(C)c3cc(N)cc(C(F)(F)F)c3)c2cc1OC1CCOC1 | 96

Record CN(C)C/C=C/C(=O)Nc1cc2c(Nc3ccc(F)c(Cl)c3)ncnc2cc1O[C@H]1CCOC1 + CNCc1ccccc1-c1csc(C(C)Nc2nc(C)nc3cc(OC)c(OC)cc23)c1 , field viability, T/C: 94.8

Record CC(C)n1nc(-c2ccc3oc(N)nc3c2)c2c(N)ncnc21 + CC1OCC2(CCN(c3cnc(Sc4ccnc(N)c4Cl)c(N)n3)CC2)C1N , field viability, T/C: 84.5

----------
# System: CN0375-F725-PDC KRAS spheroid viability
# Assay Explanation: Anticancer human tumor CN0375-F725-PDC cell line growth inhibition [KRAS2];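 further: spheroids exposed to agents for 7 days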
# Test Conditions: curve of first compound; second compound 1 µM; spheroids with HUVEC and MSC
Attribute Measured: IC50 (nM)
Unit nM implied. Number only.

Compound | Experimental System | IC50 [nM]
CCN1CCN(Cc2ccc(Nc3ncc(F)c(-c4cc(F)c5nc(C)n(C(C)C)c5c4)n3)nc2)CC1 + CNCc1ccccc1-c1csc(C(C)Nc2nc(C)nc3cc(OC)c(OC)cc23)c1 | CN0375-F725-PDC KRAS spheroid viability | 32.8

Record Cn1nccc1Nc1nccc(-c2cc3c(s2)C(C)(C)N(CCN2CCOCC2)C3=O)n1 + CC1OCC2(CCN(c3cnc(Sc4ccnc(N)c4Cl)c(N)n3)CC2)C1N , field IC50: 661

----------
Recorded viability, T/C, one value per entry.
# System: CN0375-F725-PDC KRAS spheroid viability
# Assay Explanation: Anticancer human tumor CN0375-F725-PDC cell line growth inhibition [KRAS2];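 further: spheroids exposed to agents for 7 days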
# Test Conditions: second compound 1 µM; first compound 0.316 µM; stronger effect = lower value; spheroids with HUVEC and MSC
Unit % implied. Number only.

Some compounds with known viability, T/C results, for comparison:
Compound | Unit Descriptor | Recorded Number
CC1(C)CCC(CN2CCN(c3ccc(C(=O)NS(=O)(=O)c4ccc(NCC5CCOCC5)c([N+](=O)[O-])c4)c(Oc4cnc5[nH]ccc5c4)c3)CC2)=C(c2ccc(Cl)cc2)C1 + C=CC(=O)N1CCN(c2nc(=O)n(-c3c(C)ccnc3C(C)C)c3nc(-c4c(O)cccc4F)c(F)cc23)C(C)C1 | % | 109
Cn1nccc1Nc1nccc(-c2cc3c(s2)C(C)(C)N(CCN2CCOCC2)C3=O)n1 + CNCc1ccccc1-c1csc(C(C)Nc2nc(C)nc3cc(OC)c(OC)cc23)c1 | % | 25.3
CC1(C)CCC(CN2CCN(c3ccc(C(=O)NS(=O)(=O)c4ccc(NCC5CCOCC5)c([N+](=O)[O-])c4)c(Oc4cnc5[nH]ccc5c4)c3)CC2)=C(c2ccc(Cl)cc2)C1 + CC1OCC2(CCN(c3cnc(Sc4ccnc(N)c4Cl)c(N)n3)CC2)C1N | % | 89.9
COc1cc(Nc2ncc3c(n2)-c2ccc(Cl)cc2C(c2c(F)cccc2OC)=NC3)ccc1C(=O)O + C=CC(=O)N1CCN(c2nc(=O)n(-c3c(C)ccnc3C(C)C)c3nc(-c4c(O)cccc4F)c(F)cc23)C(C)C1 | % | 97
CCNC(=O)CC1N=C(c2ccc(Cl)cc2)c2cc(OC)ccc2-n2c(C)nnc21 (stereo not given) + C=CC(=O)N1CCN(c2nc(=O)n(-c3c(C)ccnc3C(C)C)c3nc(-c4c(O)cccc4F)c(F)cc23)C(C)C1 | % | 87.3

Record COc1cc(Nc2ncc3c(n2)-c2ccc(Cl)cc2C(c2c(F)cccc2OC)=NC3)ccc1C(=O)O + CC1OCC2(CCN(c3cnc(Sc4ccnc(N)c4Cl)c(N)n3)CC2)C1N , field viability, T/C: 82.2

Record CC(=O)OC12COC1CC(O)C1(C)C(=O)C(O)C3=C(C)C(OC(=O)C(O)C(NC(=O)OC(C)(C)C)c4ccccc4)CC(O)(C(OC(=O)c4ccccc4)C21)C3(C)C (stereo not given) + C=CC(=O)N1CCN(c2nc(OCC3CCCN3C)nc3c2CCN(c2cccc4cccc(C)c24)C3)CC1CC#N , field viability, T/C: 78.8

Record COC(=O)c1ccc2c(C(=Nc3ccc(N(C)C(=O)CN4CCN(C)CC4)cc3)c3ccccc3)c(O)[nH]c2c1 + CC1OCC2(CCN(c3cnc(Sc4ccnc(N)c4Cl)c(N)n3)CC2)C1N , field viability, T/C: 93.5

Record COc1cc(Nc2ncc3c(n2)-c2ccc(Cl)cc2C(c2c(F)cccc2OC)=NC3)ccc1C(=O)O + CNCc1ccccc1-c1csc(C(C)Nc2nc(C)nc3cc(OC)c(OC)cc23)c1 , field viability, T/C: 57.5

Record O=C(c1cc(Cc2n[nH]c(=O)c3ccccc23)ccc1F)N1CCN(C(=O)C2CC2)CC1 + C=CC(=O)N1CCN(c2nc(=O)n(-c3c(C)ccnc3C(C)C)c3nc(-c4c(O)cccc4F)c(F)cc23)C(C)C1 , field viability, T/C: 106
